System: Bacillus subtilis 6633
Experiment: MIC, serial dilution in nutrient agar, human bacteria
Type: cell-based
Conditions: Bacillus subtilis 6633; nutrient agar containing 5% chocolated horse blood; read-out: M.I.C.

[
  {
    "compound": "CCOC(=O)CCCCCNC(=O)C=C(C)CC1OCC(CC2OC2C(C)C(C)O)C(O)C1O (stereo not shown)",
    "MIC / µg/mL": 10
  },
  {
    "compound": "COC(=O)CCCCCNC(=O)C=C(C)CC1OCC(CC2OC2C(C)C(C)O)C(O)C1O (stereo not shown)",
    "MIC / µg/mL": 10
  },
  {
    "compound": "CNC(=O)C=C(C)CC1OCC(CC2OC2C(C)C(C)O)C(O)C1O (stereo not shown) [Example 2, N-Methylamide of monic acid A]",
    "MIC / µg/mL": 10
  },
  {
    "compound": "COC(=O)CNC(=O)C=C(C)CC1OCC(CC2OC2C(C)C(C)O)C(O)C1O (stereo not shown)",
    "MIC / µg/mL": 25
  }
]

###

Tested on: Strep. uberis SPU 1
Assay: MIC, veterinary bacteria
Format: cell-based
Settings: Streptococcus uberis, SPU1; Strep. uberis SPU 1; read-out: M.I.C.
Reported MIC values follow for various compounds

[
  {
    "compound": "COC(=O)CNC(=O)C=C(C)CC1OCC(CC2OC2C(C)C(C)O)C(O)C1O (stereo not shown)",
    "MIC, mg/L": 5
  },
  {
    "compound": "CC(=CC(=O)N(C)C)CC1OCC(CC2OC2C(C)C(C)O)C(O)C1O (stereo not shown) [Example 4, Dimethylamide of monic acid A]",
    "MIC, mg/L": 20
  },
  {
    "compound": "CC(=CC(N)=O)CC1OCC(CC2OC2C(C)C(C)O)C(O)C1O (stereo not shown) [Example 1, Primary amide of monic acid A]",
    "MIC, mg/L": 20
  },
  {
    "compound": "COC(=O)CCCCCCCCNC(=O)C=C(C)CC1OCC(CC2OC2C(C)C(C)O)C(O)C1O (stereo not shown)",
    "MIC, mg/L": 0.125
  }
]

###

Assay: Mouse blood levels
Format: in vivo, male albino mice, CS1 strain
Conditions: sc, 50 mg/kg subcutaneous, blood
Reported half-life values follow for various molecules

[
  {
    "molecule": "C/C(=C\\C(=O)OCCCCCCCCC(=O)O)C[C@@H]1OC[C@H](C[C@@H]2O[C@H]2[C@@H](C)[C@H](C)O)[C@@H](O)[C@H]1O [Pseudomonic Acid, reference compound]",
    "half-life (min)": 5
  },
  {
    "molecule": "CCOC(=O)CCCCCNC(=O)C=C(C)CC1OCC(CC2OC2C(C)C(C)O)C(O)C1O (centres unmarked) [Example 5]",
    "half-life (min)": 15
  }
]

###

Assay: Mouse blood levels
Format: in vivo, male albino mice, CS1 strain
Conditions: blood, sc, 20 minutes after dosing, 50 mg/kg subcutaneous, mean of 5 experiments, assay Neisseria catarrhalis, read-out: Concentration (blood level)
Reported concentration at 20 min values follow for various compounds

[
  {
    "compound": "C/C(=C\\C(=O)OCCCCCCCCC(=O)O)C[C@@H]1OC[C@H](C[C@@H]2O[C@H]2[C@@H](C)[C@H](C)O)[C@@H](O)[C@H]1O [Pseudomonic Acid, reference compound]",
    "concentration at 20 min, ng/mL": 1100
  },
  {
    "compound": "CCOC(=O)CCCCCNC(=O)C=C(C)CC1OCC(CC2OC2C(C)C(C)O)C(O)C1O (centres unmarked)",
    "concentration at 20 min, ng/mL": 16100
  }
]

###

Assay: Mouse blood levels
Type: in vivo, male albino mice, CS1 strain
Settings: blood, sc, 30 minutes after dosing, 50 mg/kg subcutaneous, mean of 5 experiments, assay Neisseria catarrhalis, read-out: Concentration (blood level)

[
  {
    "compound": "C/C(=C\\C(=O)OCCCCCCCCC(=O)O)C[C@@H]1OC[C@H](C[C@@H]2O[C@H]2[C@@H](C)[C@H](C)O)[C@@H](O)[C@H]1O [Pseudomonic Acid, reference compound]",
    "concentration at 0.5 h (ng/mL)": 620
  },
  {
    "compound": "CCOC(=O)CCCCCNC(=O)C=C(C)CC1OCC(CC2OC2C(C)C(C)O)C(O)C1O (centres unmarked)",
    "concentration at 0.5 h (ng/mL)": 9100
  }
]

###

Measured MIC (Staph. aureus 152)
quantityKind: MIC (µg/mL)

[
  {
    "compound": "COC(=O)CNC(=O)C=C(C)CC1OCC(CC2OC2C(C)C(C)O)C(O)C1O (centres unmarked) [Example 3]",
    "outputUnit": "µg/mL",
    "qual": ">",
    "reported": 80
  },
  {
    "compound": "CC(=CC(N)=O)CC1OCC(CC2OC2C(C)C(C)O)C(O)C1O (centres unmarked) [Example 1, Primary amide of monic acid A]",
    "outputUnit": "µg/mL",
    "qual": ">",
    "reported": 80
  },
  {
    "compound": "COC(=O)CCCCCNC(=O)C=C(C)CC1OCC(CC2OC2C(C)C(C)O)C(O)C1O (centres unmarked) [Example 9]",
    "outputUnit": "µg/mL",
    "qual": "=",
    "reported": 20
  },
  {
    "compound": "CC(=CC(=O)N1CCOCC1)CC1OCC(CC2OC2C(C)C(C)O)C(O)C1O (centres unmarked) [Example 6, Morpholinyl amide of monic acid A]",
    "outputUnit": "µg/mL",
    "qual": ">",
    "reported": 80
  },
  {
    "compound": "C=CCNC(=O)C=C(C)CC1OCC(CC2OC2C(C)C(C)O)C(O)C1O (centres unmarked) [Example 8, Allylamide of monic acid A]",
    "outputUnit": "µg/mL",
    "qual": "=",
    "reported": 20
  },
  {
    "compound": "CCOC(=O)CCCCCNC(=O)C=C(C)CC1OCC(CC2OC2C(C)C(C)O)C(O)C1O (centres unmarked) [Example 5]",
    "outputUnit": "µg/mL",
    "qual": "=",
    "reported": 45
  },
  {
    "compound": "COC(=O)CCCCCCCCNC(=O)C=C(C)CC1OCC(CC2OC2C(C)C(C)O)C(O)C1O (centres unmarked) [Example 7]",
    "outputUnit": "µg/mL",
    "qual": "=",
    "reported": 8
  },
  {
    "compound": "CC(=CC(=O)N(C)C)CC1OCC(CC2OC2C(C)C(C)O)C(O)C1O (centres unmarked) [Example 4, Dimethylamide of monic acid A]",
    "outputUnit": "µg/mL",
    "qual": ">",
    "reported": 80
  }
]

###

Assay: Mouse blood levels
Format: in vivo, male albino mice, CS1 strain
Details: blood, sc, 60 minutes after dosing, 50 mg/kg subcutaneous, mean of 5 experiments, assay Neisseria catarrhalis, read-out: Concentration (blood level)

[
  {
    "compound": "C/C(=C\\C(=O)OCCCCCCCCC(=O)O)C[C@@H]1OC[C@H](C[C@@H]2O[C@H]2[C@@H](C)[C@H](C)O)[C@@H](O)[C@H]1O [Pseudomonic Acid, reference compound]",
    "concentration at 1 h": "< 500 ng/mL"
  },
  {
    "compound": "CCOC(=O)CCCCCNC(=O)C=C(C)CC1OCC(CC2OC2C(C)C(C)O)C(O)C1O (centres unmarked)",
    "concentration at 1 h": "< 4000 ng/mL"
  }
]

###

Test system: Bacillus subtilis 6633
Test: MIC, serial dilution in nutrient agar, human bacteria
Format: cell-based
Conditions: Bacillus subtilis 6633; nutrient agar containing 5% chocolated horse blood; read-out: M.I.C.
quantityKind: MIC (µg/mL)

[
  {
    "molecule": "CC(=CC(N)=O)CC1OCC(CC2OC2C(C)C(C)O)C(O)C1O (stereo not drawn) [Example 1, Primary amide of monic acid A]",
    "systemName": "Bacillus subtilis 6633",
    "reported": 100
  },
  {
    "molecule": "CC(=CC(=O)N(C)C)CC1OCC(CC2OC2C(C)C(C)O)C(O)C1O (stereo not drawn) [Example 4, Dimethylamide of monic acid A]",
    "systemName": "Bacillus subtilis 6633",
    "reported": 25
  },
  {
    "molecule": "C=CCNC(=O)C=C(C)CC1OCC(CC2OC2C(C)C(C)O)C(O)C1O (stereo not drawn) [Example 8, Allylamide of monic acid A]",
    "systemName": "Bacillus subtilis 6633",
    "reported": 2.5
  }
]

###

System: Haemophilus influenzae Wy21
Test: MIC, serial dilution in nutrient agar, human bacteria
Format: cell-based
Conditions: Haemophilus influenzae Wy21; nutrient agar containing 5% chocolated horse blood; read-out: M.I.C.

[
  {
    "molecule": "COC(=O)CNC(=O)C=C(C)CC1OCC(CC2OC2C(C)C(C)O)C(O)C1O (stereo not shown) [Example 3]",
    "MIC, µg/mL": 1.2
  },
  {
    "molecule": "CCOC(=O)CCCCCNC(=O)C=C(C)CC1OCC(CC2OC2C(C)C(C)O)C(O)C1O (stereo not shown) [Example 5]",
    "MIC, µg/mL": 0.5
  },
  {
    "molecule": "CC(=CC(N)=O)CC1OCC(CC2OC2C(C)C(C)O)C(O)C1O (stereo not shown) [Example 1, Primary amide of monic acid A]",
    "MIC, µg/mL": 10
  },
  {
    "molecule": "CC(=CC(=O)N(C)C)CC1OCC(CC2OC2C(C)C(C)O)C(O)C1O (stereo not shown) [Example 4, Dimethylamide of monic acid A]",
    "MIC, µg/mL": 2.5
  }
]
